Entries and their measured pIC50 follow.
Molecular target: COVID-19 (nCoV-2019, SARS-CoV2) Mpro (Severe acute respiratory syndrome coronavirus 2, UniProt P0DTD1)
Assay: COVID-19 (nCoV-2019, SARS-CoV2) Mpro enzymatic assay
Assay type: biochemical
Settings: 25 nM Mpro, 25 μM substrate; read-out: COVID-19 Mpro IC50
pIC50: −log10 of the molar value.
readout-kind: pIC50

INSERT INTO assay_data (compound, readout_value) VALUES
  ('CC(C)(C)c1ccc(N(C(=O)[C@H]2C[C@@H](O)CN2C#N)C(C(=O)Nc2c(Cl)cccc2Cl)c2cccnc2)cc1 (some centres unmarked) [Compound 591]', '5.00 to 5.70'),
  ('N#CC1(C(=O)N(c2ccc(S(F)(F)(F)(F)F)cc2)C(C(=O)NC2CCC(F)(F)CC2)c2cncc(F)c2)CC1 (single isomer, unassigned) [1289 Isomer 1]', '< 4.52'),
  ('CC(C)(C)c1ccc(N(C(=O)[C@H]2CCCN2C#N)C(C(=O)N2CCNC(=O)C2)c2cccnc2)cc1 (single isomer, unassigned) [Compound 961 Isomer 1]', '5.00 to 5.70'),
  ('CO[C@@H]1C[C@H](C(=O)N(c2ccc(S(F)(F)(F)(F)F)cc2)C(C(=O)N(C)CC(=O)NC2CC2)c2cccnc2)N(C#N)C1 (single isomer, unassigned) [Compound 1122]', '> 5.70'),
  ('CC(C(=O)NC1CCC(F)(F)CC1)(c1cccnc1)N(C(=O)[C@H]1[C@@H]2C[C@@H]2CN1C#N)c1ccc(S(F)(F)(F)(F)F)cc1 (single isomer, unassigned) [Compound 1251 Isomer 1]', '5.00 to 5.70');

====

Biological target: 229E Mpro (Human coronavirus 229E, UniProt P0C6X1)
Sequence (P0C6X1 2966-3267): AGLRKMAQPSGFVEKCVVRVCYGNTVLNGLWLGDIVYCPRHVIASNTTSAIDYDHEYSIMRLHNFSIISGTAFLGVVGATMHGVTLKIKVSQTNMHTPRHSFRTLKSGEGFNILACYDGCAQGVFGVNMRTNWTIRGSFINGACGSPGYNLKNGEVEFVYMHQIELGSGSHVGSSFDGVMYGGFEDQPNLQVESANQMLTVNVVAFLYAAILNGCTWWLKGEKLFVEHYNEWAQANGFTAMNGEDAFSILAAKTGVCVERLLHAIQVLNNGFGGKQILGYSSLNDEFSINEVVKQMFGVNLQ
Experiment: 229E Mpro enzymatic assay (standard methods, SARS-CoV2 Mpro assay given as exemplary)
Type: biochemical, human coronavirus (HCov) 229E
Details: 229E Mpro EC50
pEC50: −log10 of the molar value.
readout-kind: pEC50

INSERT INTO measurements (compound, assay_target, readout_value) VALUES
  ('CC(C)(C)c1ccc(N(C(=O)[C@H]2[C@H](F)CCN2C#N)C(C(=O)NC2CCC(F)(F)CC2)c2cncc(F)c2)cc1 (single isomer, unassigned) [1212 Isomer 1]', '229E Mpro (Human coronavirus 229E, UniProt P0C6X1)', '> 5.70'),
  ('CC(C)(C)c1ccc(N(C(=O)[C@H]2[C@H](F)CCN2C#N)C(C(=O)NC2CCCCC2)c2cccnc2)cc1 (single isomer, unassigned) [Compound 910 Isomer 1]', '229E Mpro (Human coronavirus 229E, UniProt P0C6X1)', '> 5.70'),
  ('C[C@H](NC(=O)C(c1cncc(F)c1)N(C(=O)[C@H]1C[C@@](C)(O)CN1C#N)c1ccc(-c2ccccc2)cc1)c1ccccc1 (single isomer, unassigned) [1345 Isomer 2]', '229E Mpro (Human coronavirus 229E, UniProt P0C6X1)', '4.52 to 5.00'),
  ('C[C@H]1CC[C@H](C(=O)N(c2ccc(C(C)(C)C)cc2)C(C(=O)NC2CCCCC2)c2cccnc2)N1C#N (single isomer, unassigned) [Compound 247 Isomer 1]', '229E Mpro (Human coronavirus 229E, UniProt P0C6X1)', '> 5.70'),
  ('CO[C@@H]1C[C@H](C(=O)N(c2ccc(C(C)(C)C)cc2)C(C)(C(=O)NC2CCC(F)(F)CC2)c2cnccn2)N(C#N)C1 (single isomer, unassigned) [1198 Isomer 2]', '229E Mpro (Human coronavirus 229E, UniProt P0C6X1)', '> 5.70'),
  ('N#CN1C[C@H](O)C[C@@H]1C(=O)N(c1ccc(C2CC2)cc1F)C(C(=O)NC1CCCCC1)c1cccnc1 (single isomer, unassigned) [Compound 763 Isomer 1]', '229E Mpro (Human coronavirus 229E, UniProt P0C6X1)', '> 5.70'),
  ('CC(C)(C)c1ccc(N(C(=O)[C@@H]2CCCN2)C(C(=O)NC2CCCCC2)c2cccnc2)cc1 (single isomer, unassigned) [Compound 131c]', '229E Mpro (Human coronavirus 229E, UniProt P0C6X1)', '< 4.52'),
  ('N#CN1CC[C@H]2C[C@]21C(=O)N(c1ccc(S(F)(F)(F)(F)F)cc1)C(C(=O)NC1CCC(F)(F)CC1)c1cnccc1C(F)(F)F (some centres unmarked)', '229E Mpro (Human coronavirus 229E, UniProt P0C6X1)', '4.52 to 5.00'),
  ('CC(C)(C)c1ccc(N(C(=O)[C@H]2C[C@@H](O)CN2C#N)C(C(=O)NC2CCCC2)c2cccnc2)cc1 (single isomer, unassigned) [595 Isomer 1]', '229E Mpro (Human coronavirus 229E, UniProt P0C6X1)', '> 5.70'),
  ('C[C@@]1(O)C[C@H](C(=O)N(c2ccc(S(F)(F)(F)(F)F)cc2)C(C(=O)NC2CCC(F)(F)CC2)c2ccc(F)nc2)N(C#N)C1 (single isomer, unassigned) [1157 Isomer 1]', '229E Mpro (Human coronavirus 229E, UniProt P0C6X1)', '> 5.70'),
  ('C[C@@H]1C[C@H](C(=O)N(c2ccc(C(C)(C)C)cc2)C(C(=O)NC2CCCCC2)c2cccnc2)N(C#N)C1 (single isomer, unassigned) [Compound 232 Isomer 2]', '229E Mpro (Human coronavirus 229E, UniProt P0C6X1)', '> 5.70');

====

Recorded IC50 values for a group of compounds are listed next.
Molecular target: COVID-19 (nCoV-2019, SARS-CoV2) Mpro (Severe acute respiratory syndrome coronavirus 2)
Experiment: COVID-19 (nCoV-2019, SARS-CoV2) Mpro enzymatic assay
Type: biochemical
Conditions: 25 nM Mpro, 25 μM substrate; read-out: COVID-19 Mpro IC50
readout-kind: IC50

INSERT INTO measurements (compound, readout_kind, readout_value) VALUES
  ('CO[C@@H]1C[C@H](C(=O)N(c2ccc(S(F)(F)(F)(F)F)cc2)C(C(=O)NC2C[C@@H](C)O[C@@H](C)C2)c2cccnc2)N(C#N)C1 (single isomer, unassigned)', 'IC50', '< 2 µM'),
  ('CC(C)(C)c1ccc(N(C(=O)[C@H]2CCC(C)(C)N2C#N)C(C(=O)NC2CCCCC2)c2cccnc2)cc1 (single isomer, unassigned) [Compound 262 Isomer 1]', 'IC50', '> 30 µM'),
  ('CC(C)(C)c1ccc(N(C(=O)c2nccnc2C#N)C(C(=O)NC2CCCCC2)c2cccnc2)cc1 (centres unmarked)', 'IC50', '> 30 µM'),
  ('CN(C)CCNC(=O)C(c1cccnc1)N(C(=O)[C@H]1CCCN1C#N)c1ccc(C(C)(C)C)cc1 (single isomer, unassigned) [Compound 435 Isomer 1]', 'IC50', '2 to 10 µM'),
  ('CC1(O)C[C@H](C(=O)N(c2ccc(C(C)(C)C)cc2)C(C(=O)NC2CCCCC2)c2cccnc2)N(C#N)C1 (single isomer, unassigned) [Compound 284 Isomer 2]', 'IC50', '< 2 µM'),
  ('CO[C@@H]1C[C@H](C(=O)N(c2ccc(S(F)(F)(F)(F)F)cc2)C(C(=O)NC(C)C2CCCCN2C(=O)OC(C)(C)C)c2cccnc2)N(C#N)C1 (single isomer, unassigned) [1303 Isomer 3.2]', 'IC50', '> 30 µM'),
  ('C[C@H](NC(=O)C(c1cccnc1)N(C(=O)c1ccco1)c1ccc(-c2ccccc2)cc1)c1ccccc1 (single isomer, unassigned) [1353 Isomer 1]', 'IC50', '< 2 µM'),
  ('CC(C)(C)c1ccc(N(C(=O)[C@@H]2CCCN2)C(C(=O)NC2CCCCC2)c2cccnc2)cc1 (some centres unmarked) [Compound 131d]', 'IC50', '> 30 µM'),
  ('CN1CC(C(=O)N(c2ccc(S(F)(F)(F)(F)F)cc2)C(C(=O)NC2CCC(F)(F)CC2)c2cncc(F)c2)N(C#N)CC1=O (single isomer, unassigned) [Compound 1161 Isomer 1]', 'IC50', '< 2 µM'),
  ('CC1(C)CN(C#N)[C@@H](C(=O)N(c2ccc(C(C)(C)C)cc2)C(C(=O)NC2CCOCC2)c2cccnc2)CO1 (single isomer, unassigned) [Compound 1141]', 'IC50', '< 2 µM'),
  ('CO[C@@H]1C[C@H](C(=O)N(c2ccc(C(C)(C)C)cc2F)C(C(=O)NC2CCC(F)(F)CC2)c2cncc(F)c2)N(C#N)C1 (single isomer, unassigned) [1207 Isomer 2]', 'IC50', '> 30 µM');

====

Property: pIC50; scope: individual compounds
Biological target: COVID-19 (nCoV-2019, SARS-CoV2) Mpro (Severe acute respiratory syndrome coronavirus 2, UniProt P0DTD1)
Test: COVID-19 (nCoV-2019, SARS-CoV2) Mpro enzymatic assay
Type: biochemical
Settings: 25 nM Mpro, 25 μM substrate; read-out: COVID-19 Mpro IC50
pIC50: −log10 of the molar value.
readout-kind: pIC50

INSERT INTO measurements (compound, readout_kind, readout_value) VALUES
  ('CS(=O)(=O)[C@H]1C[C@H](C(=O)N(c2ccc(S(F)(F)(F)(F)F)cc2)C(C(=O)NC2CCC(F)(F)CC2)c2cncc(F)c2)N(C#N)C1 (single isomer, unassigned) [1105 Isomer 2]', 'pIC50', '> 5.70'),
  ('O=C(NC1CCC(F)(F)CC1)C(c1cncc(F)c1)N(C(=O)c1cnc[nH]1)c1ccc(S(F)(F)(F)(F)F)cc1 (single isomer, unassigned) [1337 Isomer 1]', 'pIC50', '4.52 to 5.00'),
  ('CC(C)(C)c1ccc(N(C(=O)c2scnc2C#N)C(C(=O)NC2CCCCC2)c2cccnc2)cc1 (stereo not drawn) [Compound 899]', 'pIC50', '< 4.52'),
  ('CO[C@@H]1C[C@H](C(=O)N(c2ccc(C3CC3)cc2F)C(C(=O)NC2CCC(F)(F)CC2)c2cnccc2C(F)(F)F)N(C#N)C1 (single isomer, unassigned) [Compound 1309 Isomer 2]', 'pIC50', '5.00 to 5.70'),
  ('CC(C)(C)c1ccc(N(C(=O)[C@H]2NCC2(C)C)[C@@H](C(=O)NC2CCCCC2)c2cccnc2)cc1 [Compound 136c]', 'pIC50', '< 4.52'),
  ('N#CN1C[C@@H]2C[C@@H]2[C@@H]1C(=O)N(c1ccc(S(F)(F)(F)(F)F)cc1)C(C(=O)NC1CCC(F)(F)CC1)c1cncc(F)c1 (single isomer, unassigned) [1096 Isomer 1]', 'pIC50', '5.00 to 5.70'),
  ('N#CN1C[C@H](O)C[C@@H]1C(=O)N(c1ccc(S(F)(F)(F)(F)F)cc1)C(C(=O)NC1CCCCC1)c1cccnc1 (single isomer, unassigned) [Compound 791 Isomer 1]', 'pIC50', '> 5.70'),
  ('CC(C)(C)c1ccc(N(C(=O)[C@H]2CCCN2C#N)C(C(=O)NCc2ccccn2)c2cccnc2)cc1 (stereo partly drawn) [Compound 443]', 'pIC50', '5.00 to 5.70'),
  ('C[C@H](NC(=O)C(c1cnccc1C(F)(F)F)N(C(=O)[C@H]1C[C@@](C)(O)CN1C#N)c1ccc(S(F)(F)(F)(F)F)cc1)c1ccccc1 (stereo partly drawn) [Compound 1347]', 'pIC50', '> 5.70'),
  ('COCCNC(=O)C(c1cccnc1)N(C(=O)[C@H]1C[C@@H](O)CN1C#N)c1ccc(C(C)(C)C)cc1 (single isomer, unassigned) [627 Isomer 1]', 'pIC50', '> 5.70'),
  ('C[C@@]1(O)C[C@H](C(=O)N(c2ccc(S(F)(F)(F)(F)F)cc2)C(C(=O)NC2CCC(F)(F)CC2)c2cccnc2)N(C#N)C1 (single isomer, unassigned) [Compound 1156 Isomer 2]', 'pIC50', '> 5.70'),
  ('C[C@@H]1CN(C#N)[C@H]1C(=O)N(c1ccc(S(F)(F)(F)(F)F)cc1)C(C(=O)NC1CCC(F)(F)CC1)c1cncc(F)c1 (single isomer, unassigned) [1211 Isomer 1]', 'pIC50', '5.00 to 5.70'),
  ('C[C@@]1(O)C[C@H](C(=O)N(c2ccc(S(F)(F)(F)(F)F)cc2)C(C(=O)NC2CCC(F)(F)CC2)c2cccnc2F)N(C#N)C1 (stereo partly drawn) [Compound 1158]', 'pIC50', '> 5.70'),
  ('CC(C)(C)OC(=O)N1CCC[C@@H]1C(=O)N(c1ccc(C(C)(C)C)cc1)C(C(=O)NC1CCCCC1)c1cccnc1 (single isomer, unassigned) [Compound 131a]', 'pIC50', '< 4.52'),
  ('C[C@@]1(O)C[C@H](C(=O)N(c2ccc(S(F)(F)(F)(F)F)cc2)C(C(=O)NC2CCC(F)(F)CC2)c2cccnc2)N(C#N)C1 (single isomer, unassigned) [Compound 1156 Isomer 1]', 'pIC50', '5.00 to 5.70'),
  ('N#CN1C[C@H](O)C[C@@H]1C(=O)N(c1ccc(C2CC2)c(F)c1)C(C(=O)NC1CCCCC1)c1cccnc1 (single isomer, unassigned) [Compound 767 Isomer 1]', 'pIC50', '> 5.70'),
  ('COc1cncc(C(C(=O)NC2CCCCC2)N(C(=O)[C@H]2C[C@@H](O)CN2C#N)c2ccc(C(C)(C)C)cc2)c1 (single isomer, unassigned) [679 Isomer 2]', 'pIC50', '4.52 to 5.00'),
  ('N#CN1C[C@H]2C[C@H]2[C@@H]1C(=O)N(c1ccc(S(F)(F)(F)(F)F)cc1)C(C(=O)NC1CCC(F)(F)CC1)c1cnccc1C(F)(F)F (single isomer, unassigned) [Compound 1318 Isomer 2]', 'pIC50', '> 5.70'),
  ('CC(C)(C)c1ccc(N(C(=O)[C@H]2CCCN2C#N)C(C(=O)NCCN2CCOCC2)c2cccnc2)cc1 (single isomer, unassigned) [391 Isomer 1]', 'pIC50', '> 5.70'),
  ('N#CN1CC(=O)NC[C@@H]1C(=O)N(c1ccc(S(F)(F)(F)(F)F)cc1)C(C(=O)NC1CCOCC1)c1cccnc1 (stereo partly drawn) [Compound 811]', 'pIC50', '> 5.70'),
  ('CC(C)(C)O[C@@H]1C[C@H](C(=O)N(c2ccc(C(C)(C)C)cc2)C(C(=O)NC2CCCCC2)c2cccnc2)N(C#N)C1 (single isomer, unassigned) [Compound 299 Isomer 1]', 'pIC50', '4.52 to 5.00');
